Source listed as patent US20180208664A1.

So I've got a bunch of binders here, and I need their EC50, Assay 2: antagonism of CD95L-T4-induced apoptosis on Jurkat A3 cells values.
Target: T1, APG293 (human CD95L-T4) (human)
T1 chain: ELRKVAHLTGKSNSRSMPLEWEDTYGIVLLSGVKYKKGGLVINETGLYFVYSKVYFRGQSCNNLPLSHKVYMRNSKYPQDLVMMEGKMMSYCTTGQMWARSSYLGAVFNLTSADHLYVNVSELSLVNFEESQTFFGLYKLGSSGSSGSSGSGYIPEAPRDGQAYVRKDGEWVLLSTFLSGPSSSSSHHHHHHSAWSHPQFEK
Experiment: cell-based or functional assay
Give bare numbers, in µg/mL.

binder: scFv-minibody SEQ ID 37 (scFv) scFv: QSLEESGGDLVKPGASLTLTCTASGFSFSSGYDMCWVRQAPGKGLEWIACIDTDNDATYYASWAKGRFTISKPSSTTVLLQITSLTAADTATYFCATTHGDYVAFKLWGPGTLVTVSGGGSGGGSGGGSGGGSQVLTQTASSVSAAVGGTVTINCQSSQSVYKNNDLSWYQQKPRQPPKLLIYQASKLASGVPSRFKGSGSGTQFTLTIGDLESDDGATYYCAGGYTASIYAFGGGTEVVGSGSSGQPREPQVYTLPPSREEMTKNQVSLTCLVKGFYPSDIAVEWESQGSPENNYKTTPPVLDSDGSFFLYSKLTVDKSRWQQGNVFSCSVMHEALHNHYTQKSLSLSPGSSSSSSAWSHPQFEK
reportedValue: 0.117

Next up:
Documented EC50, Assay 2: antagonism of CD95L-T4-induced apoptosis on Jurkat A3 cells of scFv-minibody SEQ ID 40 (scFv) scFv: EVQLVESGGGLVQPGGSLRLSCAASGFSFSSGYDMSWVRQAPGKGLEWVSAIDTDNDATYYADSVKGRFTISKDSSKNTLYLQMNSLRAEDTAVYYCARTHGDYVAFKLWGQGTLVTVSGGGSGGGSGGGSGGGSDIQMTQSPSSLSASVGDRVTITCQSSQSVYKNNDLSWYQQKPGKAPKLLIYQASKLASGVPSRFSGSGSGTDFTLTISSLQPEDFATYYCAGGYTASIYAFGQGTKVEIKGSGSSGQPREPQVYTLPPSREEMTKNQVSLTCLVKGFYPSDIAVEWESQGSPENNYKTTPPVLDSDGSFFLYSKLTVDKSRWQQGNVFSCSVMHEALHNHYTQKSLSLSPGSSSSSSAWSHPQFEK : 0.591
